Reference for the values: PubChem BioAssay (NCI)

- Tested on: OVCAR-8 ovarian
- test description: NCI tumour cell line growth inhibition, 48 h
# TGI listing for each entry below

Reference set (5 entries):
>  <compound>
O=C1CCCC1CC(CN1CCOCC1)Sc1nnnn1-c1ccccc1 (stereo unspecified)

>  <TGI>
> 100 µM

$$$$
>  <compound>
COc1cc(C(c2ccccc2)N2C(=O)CC[C@H]2C(=O)O)cc(OC)c1OC (stereo partly specified)

>  <TGI>
> 100 µM

$$$$
>  <compound>
Cc1cc(C)[n+]2c(c1)C=CC2

>  <TGI>
> 100 µM

$$$$
>  <compound>
O=[N+]([O-])c1c(O)c2nonc2c2nn(-c3ccccc3)nc12

>  <TGI>
> 100 µM

$$$$
>  <compound>
OC(c1cc(C(F)(F)F)nc2c(Cl)cc(Cl)cc12)C1CCCCN1 (stereo unspecified)

>  <TGI>
32.5 µM

$$$$

Returns the measured TGI for the input compound. Input: NS(=O)(=O)c1ccc(-c2ccc([As](=O)(O)O)cc2)cc1
> 100 µM

Also check CC1=CC2(C)/C=C(C)/C=C\CC(O)/C=C3/C=CC(=C4C(=O)OC2(CC1C)C4=O)OC3 (stereo unspecified)
9.01 µM

Next up: CN1CCN(Cc2ccc(NC(=O)c3cncc(C#Cc4ccc(N)nc4)c3)cc2C(F)(F)F)CC1
9.9 µM

###

- Test system: NCI-H226 lung
- test description: NCI tumour cell line growth inhibition, 48 h
endpoint: TGI

Here are 2 molecules together with their reported answers.
>  <molecule>
Cc1cc(-c2ccccc2)nc(Nc2cc3ccccc3[nH]2)n1

>  <target under test>
NCI-H226 lung

>  <TGI>
> 100 µM

$$$$
>  <molecule>
C[C@]12CCC(=O)C=C1C[C@@H](O)[C@@H]1[C@@H]2CC[C@@]2(C)[C@H]1CC[C@]2(C)O

>  <target under test>
NCI-H226 lung

>  <TGI>
> 100 µM

$$$$

Param readout = TGI; param system = NCI-H226 lung; param query = CC1CN(c2cc3c(cc2F)c(=O)c(C(=O)O)cn3-c2ccc(N3CCN(C)CC3)cn2)CC(C)N1 (stereo not drawn) ; response: value
> 100 µM

###

TGI: recorded values
- Tested on: OVCAR-5 ovarian
- test description: NCI tumour cell line growth inhibition, 48 h

Guide cases for TGI, answers given:
>  <compound>
Cc1cc(N(CCC#N)CCC#N)ccc1/C(N=Nc1ccc(C(=O)O)cc1)=N\NC(=O)c1ccccc1

>  <target under test>
OVCAR-5 ovarian

>  <TGI>
> 100 µM

$$$$
>  <compound>
COC1C(O)C(C)OC(O[C@H]2CC[C@@]3(C)C(CC[C@@H]4[C@@H]3CC[C@]3(C)[C@@H](C(C)OC5OC(CO)C(O)C(O)C5O)CC[C@]43O)C2)C1O (stereo partly drawn)

>  <target under test>
OVCAR-5 ovarian

>  <TGI>
> 25 µM

$$$$
>  <compound>
C=C(C)C1(Sc2ccc(OC)cc2)CC1

>  <target under test>
OVCAR-5 ovarian

>  <TGI>
> 100 µM

$$$$
>  <compound>
CCCCCCCCN(CCCCCCCC)CC(O)c1cc(-c2ccccc2)nc2ccc(OC)cc12 (stereo not drawn)

>  <target under test>
OVCAR-5 ovarian

>  <TGI>
> 100 µM

$$$$
>  <compound>
O=C1OC(OC/C(Br)=C(\Br)COC2OC(=O)C(Cl)=C2Cl)C(Cl)=C1Cl (stereo not drawn)

>  <target under test>
OVCAR-5 ovarian

>  <TGI>
30 µM

$$$$
>  <compound>
CCSC12OC3(CCCCCN3C1=O)C1C(=O)N(c3ccccc3)C(=O)C12 (stereo not drawn)

>  <target under test>
OVCAR-5 ovarian

>  <TGI>
> 100 µM

$$$$
>  <compound>
Cc1cc(I)cc(CN(C)CCCN2CCC(C)CC2)c1O

>  <target under test>
OVCAR-5 ovarian

>  <TGI>
34.4 µM

$$$$

# input for lookup
Requested field: TGI. Item: c1ccc2c(c1)nnn2C1CCCCO1 (stereo not drawn)
> 100 µM
